system: Musca domestica (housefly); test: Musca domestica (housefly); continuous contact action; format: in vivo; settings: continuous contact in Petri dish, counted after 24 hours, application rate 0.1 ppm
measured_property: Mortality in % (%)

[
  {
    "molecule": "COC=C(C(=O)OC)c1ccccc1CON=C(C)c1cccc(C(F)(F)F)c1 [compound 705]",
    "value_measured": 100
  },
  {
    "molecule": "CCOC(C)(C)C(C#N)=NOCc1ccccc1C(=COC)C(=O)OC [compound 37]",
    "value_measured": 100
  },
  {
    "molecule": "COC=C(C(=O)OC)c1ccccc1CON=C(C)c1ccc(Br)cc1 [compound 593]",
    "value_measured": 60
  },
  {
    "molecule": "COC=C(C(=O)OC)c1ccccc1CON=C(C)c1ccc(C(F)(F)F)cc1 [compound 706]",
    "value_measured": 100
  },
  {
    "molecule": "COC=C(C(=O)OC)c1ccccc1CON=C(C)c1cc(Cl)cc(Cl)c1 [compound 582]",
    "value_measured": 80
  },
  {
    "molecule": "COC=C(C(=O)OC)c1ccccc1CON=C(C#N)C(C)C [compound 49]",
    "value_measured": 80
  }
]

====

tested on: Plutella maculipennis (diamondback moth); experiment: Plutella maculipennis (diamondback moth); ingestion-inhibiting action; format: in vivo; details: Plutella maculipennis 4th-stage caterpillars on dipped kohlrabi leaves, after 48 hours; application rate 400 ppm
measured_property: Mortality in % (%)

[
  {
    "line_notation": "COC=C(C(=O)OC)c1ccccc1CON=C(C)c1cc(Cl)cc(Cl)c1",
    "unit_label": "%",
    "value_measured": 100
  },
  {
    "line_notation": "COC=C(C(=O)OC)c1ccccc1CON=C(C)c1cccc(Br)c1",
    "unit_label": "%",
    "value_measured": 80
  },
  {
    "line_notation": "COC=C(C(=O)OC)c1ccccc1CON=C(C)c1ccc(C(F)(F)F)cc1",
    "unit_label": "%",
    "value_measured": 80
  },
  {
    "line_notation": "COC=C(C(=O)OC)c1ccccc1CON=C(c1ccc(Cl)cc1)C1CC1",
    "unit_label": "%",
    "value_measured": 80
  },
  {
    "line_notation": "COC=C(C(=O)OC)c1ccccc1CON=C(C)c1cccc(C(F)(F)F)c1",
    "unit_label": "%",
    "value_measured": 80
  }
]
